assay: Antidepressant activity shown against tetrabenazine ptosis (T.P.) after p.o. administration
Type: in vivo
reported.conditions: tetrabenazine ptosis; p.o. administration; TI = therapeutic index = LD50 (so in the source)
# TI (therapeutic index), T.P. per record follows

# compound, TI (therapeutic index), T.P.
data = [
    ("CN(C)CCC=C1c2ccccc2CCc2ccccc21 [amitriptyline, reference compound]", 19),
    ("O=c1c2c([nH]c3nc(N4CCOCC4)nn13)CCCS2", 385),
    ("CN(C)c1nc2[nH]c3c(c(=O)n2n1)SCCC3", 748),
    ("O=c1c2c([nH]c3nc(NC4CCCCC4)nn13)CCCS2", 87),
]

All values here come from patent US5064826A.
